Sourced from patent US8987233B2

Target: Btk (Homo sapiens)
Sequence (Q06187 whole entry): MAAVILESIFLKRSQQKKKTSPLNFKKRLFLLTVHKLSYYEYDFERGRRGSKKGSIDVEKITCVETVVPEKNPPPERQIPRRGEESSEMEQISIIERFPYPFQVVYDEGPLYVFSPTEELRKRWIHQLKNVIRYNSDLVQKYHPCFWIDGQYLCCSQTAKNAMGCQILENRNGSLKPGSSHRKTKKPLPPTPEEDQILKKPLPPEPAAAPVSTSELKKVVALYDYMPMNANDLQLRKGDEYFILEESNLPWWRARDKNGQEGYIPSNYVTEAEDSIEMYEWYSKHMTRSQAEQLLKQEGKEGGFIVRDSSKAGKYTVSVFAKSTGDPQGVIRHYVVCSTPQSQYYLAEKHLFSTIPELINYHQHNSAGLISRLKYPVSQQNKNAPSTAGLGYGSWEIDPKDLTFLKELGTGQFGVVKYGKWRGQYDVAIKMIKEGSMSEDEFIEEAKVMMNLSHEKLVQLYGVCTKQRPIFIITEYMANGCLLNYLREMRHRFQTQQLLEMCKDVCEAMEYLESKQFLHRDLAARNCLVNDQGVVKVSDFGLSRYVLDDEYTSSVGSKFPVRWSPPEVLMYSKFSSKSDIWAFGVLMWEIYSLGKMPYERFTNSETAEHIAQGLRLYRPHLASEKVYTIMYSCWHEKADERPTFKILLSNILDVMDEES
Assay: Probe labeling of Btk in 293H cells stably co-expressing Btk and PLCγ2
pEC50: −log10 of the molar value.
reported endpoint: pEC50

input: Return reported pEC50; argument: CC1=CC(C)=[N+]2C1=Cc1ccc(CCC(=O)NCCN3CCN(C/C=C/C(=O)N4CCC[C@@H](n5nc(-c6ccc(Oc7ccccc7)cc6)c6c(N)ncnc65)C4)CC3)n1[B-]2(F)F
output: ~6.70

###

Biological target: EGFR (Homo sapiens, UniProt P00533)
Sequence (P00533 25-1210, species assumed): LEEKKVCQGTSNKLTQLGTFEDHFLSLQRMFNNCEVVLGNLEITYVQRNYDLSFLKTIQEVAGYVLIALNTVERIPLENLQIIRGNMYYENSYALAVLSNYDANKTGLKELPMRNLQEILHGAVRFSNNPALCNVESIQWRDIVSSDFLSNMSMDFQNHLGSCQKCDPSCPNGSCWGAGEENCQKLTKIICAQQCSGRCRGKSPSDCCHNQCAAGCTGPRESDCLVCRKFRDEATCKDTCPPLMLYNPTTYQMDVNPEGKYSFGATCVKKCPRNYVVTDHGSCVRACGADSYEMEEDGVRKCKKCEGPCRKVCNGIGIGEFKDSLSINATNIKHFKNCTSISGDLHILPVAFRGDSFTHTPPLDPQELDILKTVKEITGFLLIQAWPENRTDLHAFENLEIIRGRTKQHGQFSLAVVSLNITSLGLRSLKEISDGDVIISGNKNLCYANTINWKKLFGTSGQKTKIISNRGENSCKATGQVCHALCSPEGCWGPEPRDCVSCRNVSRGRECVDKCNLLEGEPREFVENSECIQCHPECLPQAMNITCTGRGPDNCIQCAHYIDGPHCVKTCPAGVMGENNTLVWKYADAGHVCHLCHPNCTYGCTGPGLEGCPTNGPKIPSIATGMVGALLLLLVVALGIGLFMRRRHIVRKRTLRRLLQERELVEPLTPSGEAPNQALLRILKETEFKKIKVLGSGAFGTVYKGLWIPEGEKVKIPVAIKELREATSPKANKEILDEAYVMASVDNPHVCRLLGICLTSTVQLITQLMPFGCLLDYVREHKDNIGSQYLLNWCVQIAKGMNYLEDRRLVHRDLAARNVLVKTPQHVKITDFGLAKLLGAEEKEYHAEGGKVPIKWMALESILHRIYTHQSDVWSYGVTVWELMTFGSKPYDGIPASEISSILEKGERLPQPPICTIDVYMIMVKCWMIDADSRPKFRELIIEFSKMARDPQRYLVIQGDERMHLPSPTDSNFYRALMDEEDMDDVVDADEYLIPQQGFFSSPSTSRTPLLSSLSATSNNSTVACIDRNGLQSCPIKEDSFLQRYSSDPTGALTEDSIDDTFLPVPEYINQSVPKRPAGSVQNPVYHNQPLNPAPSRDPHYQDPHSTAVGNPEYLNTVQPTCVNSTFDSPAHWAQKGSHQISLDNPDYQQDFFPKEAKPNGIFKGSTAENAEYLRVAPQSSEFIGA
reported endpoint: pIC50
Scale explanation: pIC50 corresponds to minus log10 of a concentration expressed in moles per litre.

input: What does the record list as pIC50 for CC1=CC(C)=[N+]2C1=Cc1ccc(CCC(=O)NCCN3CCN(C/C=C/C(=O)N4CCC[C@@H](n5nc(-c6ccc(Oc7ccccc7)cc6)c6c(N)ncnc65)C4)CC3)n1[B-]2(F)F ?
output: 5.54
